# System: Mycobacterium tuberculosis
# assay info: Antimycobacterial activity against Mycobacterium tuberculosis H37Rv incubated for 5 days under aerobic condition by fluorescence assay
# Type: functional, organism-based
# condition context: 120 h
assay metric: MIC

Here is how some molecules turned out for MIC.
Cn1c2ccccc2c2cc(/C=C3\SC(=S)N(c4nnc(-c5ccccc5F)s4)C3=O)ccc21: > 100 µM
Cn1c2ccccc2c2cc(/C=C3\SC(=S)N(c4nnc(-c5cccc(Cl)c5)s4)C3=O)ccc21: > 100 µM
Cn1c2ccccc2c2cc(/C=C3\SC(=S)N(c4cccc(C(F)(F)F)c4)C3=O)ccc21: > 100 µM
Cn1c2ccccc2c2cc(/C=C3\SC(=S)N(c4ccccc4)C3=O)ccc21: > 100 µM
COc1ccc(N2C(=O)/C(=C/c3ccc4c(c3)c3ccccc3n4C)SC2=S)cc1OC: 50 µM
Cn1c2ccccc2c2cc(/C=C3\SC(=S)N(c4ccc(Cl)cc4)C3=O)ccc21: > 100 µM
Cn1c2ccccc2c2cc(/C=C3\SC(=S)N(c4cccc(O)c4)C3=O)ccc21: > 100 µM
Cn1c2ccccc2c2cc(/C=C3\SC(=S)N(c4nnc(-c5ccccc5Cl)s4)C3=O)ccc21: > 100 µM

Entry Cc1cc(=O)[nH]c2cc(N3C(=O)/C(=C/c4ccc5c(c4)c4ccccc4n5C)SC3=S)ccc12 — recorded MIC = > 100 µM

Record Cn1c2ccccc2c2cc(/C=C3\SC(=S)N(c4nnc(-c5ccc(Br)cc5)s4)C3=O)ccc21 . Reported MIC: > 100 µM

Entry under test: COc1cc(N2C(=O)/C(=C/c3ccc4c(c3)c3ccccc3n4C)SC2=S)cc(OC)c1OC . Its MIC was > 100 µM

Noted for Cn1c2ccccc2c2cc(/C=C3\SC(=S)N(c4nnc(-c5ccc(Cl)cc5)s4)C3=O)ccc21 : its MIC reads > 100 µM

MIC measured on Cn1c2ccccc2c2cc(/C=C3\SC(=S)N(c4ccc(C(=O)O)cc4)C3=O)ccc21 = > 100 µM

So for Cc1cc(=O)oc2cc(N3C(=O)/C(=C/c4ccc5c(c4)c4ccccc4n5C)SC3=S)ccc12 , the logged MIC turned out to be 20 µM
